Sourced from patent US9266877B2

# System: Bcl-xL (Homo sapiens (Human), UniProt Q07817)
# Sequence (Q07817 whole entry): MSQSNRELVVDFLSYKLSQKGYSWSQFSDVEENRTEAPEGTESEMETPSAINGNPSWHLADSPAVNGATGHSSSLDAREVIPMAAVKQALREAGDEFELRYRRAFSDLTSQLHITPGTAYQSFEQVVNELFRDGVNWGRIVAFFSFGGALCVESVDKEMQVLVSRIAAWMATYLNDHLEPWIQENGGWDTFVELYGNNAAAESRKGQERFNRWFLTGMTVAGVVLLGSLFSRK
# Assay name: Time Resolved-Fluorescence Resonance Energy Transfer (TR-FRET) binding assay, competition with F-Bak
# Reported conditions: competition with F-Bak probe, GST-Bcl-xL; read-out: TR-FRET binding Bcl-xL Ki
Quantity kind: Ki

- Compound structure string: "Cc1[nH]c(C#N)c(CC2CCCCC2)c1-c1ccc(N2CCc3cccc(C(=O)Nc4nc5ccccc5s4)c3C2)nc1C(=O)NS(C)(=O)=O"
  Meas value: "< 0.1 nM"

----------
# System: Bcl-xL (Homo sapiens (Human))
# Assay name: Time Resolved-Fluorescence Resonance Energy Transfer (TR-FRET) binding assay, competition with F-Bak
Quantity kind: Ki (nM)

- Compound: "Cc1c(-c2ccc(N3CCc4cccc(C(=O)Nc5nc6ccccc6s5)c4C3)nc2C(=O)O)cccc1N(C)C1CCCC(C)(C)C1 (stereo not shown) [Example 159]"
  Meas value: 0.2
